- System: Staphylococcus aureus
- Assay type: cell-based
Where a SMILES comes first, the peptide text is derived from it. [ ]: non-standard residue; d: D form. The star is where a group is joined. MeOCH2CH2OCH2CO = COCCOCC(=O)*; PEG1 = NCCOCCC(=O)O
Listed here are compounds together with their documented Minimal Inhibitory Concentration S.a..

Guide cases for Minimal Inhibitory Concentration S.a., answers given:
>  <Compound>
CC[C@@H](C)[C@@H](NC(=O)[C@@H](CCCNC(=N)N)NC(=O)CN)C(=O)N[C@@H](C(=O)N[C@H](CCCNC(=N)N)C(=O)N[C@H](CC(C)C)C(=O)N[C@H](CCCNC(=N)N)C(=O)N[C@H](C)C(=O)N[C@H](CO)C(=O)N[C@H](CC(C)C)C(=O)N[C@H](CCCNC(=N)N)C(=O)N[C@H](CC(C)C)C(=O)N[C@H](CC(C)C)C(N)=O)[C@H](C)CC [DGL13R] (H-G[dR][dI][dI][dR][dL][dR][dA][dS][dL][dR][dL][dL]-NH2)

>  <Tgt>
Staphylococcus aureus

>  <Recorded Value>
1.3 to 2.6 µg/mL

$$$$
>  <Compound>
CC[C@@H](C)[C@@H](NC(=O)[C@@H](CCCCN)NC(=O)CNC(=O)[C@@H](C)NC(=O)CNC(=O)CNC(=O)[C@@H](CC(C)C)NC(=O)CCOCCN)C(=O)N[C@@H](C(=O)N[C@H](CCCCN)C(=O)N[C@H](CC(C)C)C(=O)N[C@H](CCCCN)C(=O)N[C@H](C)C(=O)N[C@H](CO)C(=O)N[C@H](CC(C)C)C(=O)N[C@H](CCCCN)C(=O)N[C@H](CC(C)C)C(=O)N[C@H](CC(C)C)C(N)=O)[C@H](C)CC [PEG-pro-DGL13K] (H-[PEG1][dL]GG[dA]G[dK][dI][dI][dK][dL][dK][dA][dS][dL][dK][dL][dL]-NH2)

>  <Tgt>
Staphylococcus aureus

>  <Recorded Value>
5.2 µg/mL

$$$$

Next, consider the following compound.
Give recorded Minimal Inhibitory Concentration S.a. with Staphylococcus aureus for the following compound: CC[C@H](C)[C@H](NC(=O)[C@H](CCCCN)NC(=O)CNC(=O)COCCOC)C(=O)N[C@H](C(=O)N[C@@H](CCCCN)C(=O)N[C@@H](CC(C)C)C(=O)N[C@@H](CCCCN)C(=O)N[C@@H](C)C(=O)N[C@@H](CO)C(=O)N[C@@H](CC(C)C)C(=O)N[C@@H](CCCCN)C(=O)N[C@@H](CC(C)C)C(=O)N[C@@H](CC(C)C)C(N)=O)[C@@H](C)CC [PEG-LGL13K] (MeOCH2CH2OCH2CO-GKIIKLKASLKLL-NH2; N-terminus assumed)
83 µg/mL
